Assay: Lifetimes (half-life) of the activated merocyanine surfactants in solvents
Format: physicochemical
Settings: in acetone; after 365 nm irradiation; error limits 10-20%
reported-endpoint: Merocyanine Half-life (min)

Would you please look over these solved cases?
CCCC[N+]1=C(/C=C/c2cc([N+](=O)[O-])ccc2[O-])C(C)(C)c2ccccc21 [5b] ... 2.17
CCCCCCCCCCCCCCCCCC[N+]1=C(/C=C/c2cc([N+](=O)[O-])ccc2[O-])C(C)(C)c2ccccc21 [5e] ... 1.9

I. C[N+]1=C(/C=C/c2cc([N+](=O)[O-])ccc2[O-])C(C)(C)c2ccccc21 [5a]
II. CCCCCCCC[N+]1=C(/C=C/c2cc([N+](=O)[O-])ccc2[O-])C(C)(C)c2ccccc21 [5c]
stdin: Compare Merocyanine Half-life: is it lower for I or for II ? Choose, then provide that item's label.
stdout: I
(I: 1.72 min, II: 2.55 min)

###

Experiment: Lifetimes (half-life) of the activated merocyanine surfactants in solvents
Assay type: physicochemical
Conditions: in ethanol; longer than 350 s monitoring, by extrapolation of exponential fit; error limits 10-20%
reported-endpoint: Merocyanine Half-life (min)

CCCCCCCC[N+]1=C(/C=C/c2cc([N+](=O)[O-])ccc2[O-])C(C)(C)c2ccccc21 ... 25
C[N+]1=C(/C=C/c2cc([N+](=O)[O-])ccc2[O-])C(C)(C)c2ccccc21 ... 20
CCCC[N+]1=C(/C=C/c2cc([N+](=O)[O-])ccc2[O-])C(C)(C)c2ccccc21 ... 21.67
CCCCCCCCCCCCCCCCCC[N+]1=C(/C=C/c2cc([N+](=O)[O-])ccc2[O-])C(C)(C)c2ccccc21 ... 24.17

###

Assay: Lifetimes (half-life) of the activated merocyanine surfactants in solvents
Type: physicochemical
Details: in methanol; longer than 350 s monitoring, by extrapolation of exponential fit; error limits 10-20%
reported-endpoint: Merocyanine Half-life (s)

A. CCCCCCCCCCCCCCCCCC[N+]1=C(/C=C/c2cc([N+](=O)[O-])ccc2[O-])C(C)(C)c2ccccc21
B. CCCC[N+]1=C(/C=C/c2cc([N+](=O)[O-])ccc2[O-])C(C)(C)c2ccccc21
C. C[N+]1=C(/C=C/c2cc([N+](=O)[O-])ccc2[O-])C(C)(C)c2ccccc21
stdin: Order all 3 entries above by recorded Merocyanine Half-life, highest first, lowest last. # list labels per requested ordering
stdout: B, A, C
(B: 23000 s, A: 11000 s, C: 4900 s)

###

Assay: Lifetimes (half-life) of the activated merocyanine surfactants in solvents
Assay type: physicochemical
Conditions: in cyclohexane; after 365 nm irradiation; error limits 10-20%
reported-endpoint: Merocyanine Half-life (s)

CCCCCCCCCCCCCCCCCC[N+]1=C(/C=C/c2cc([N+](=O)[O-])ccc2[O-])C(C)(C)c2ccccc21 [5e] ... 40
CCCC[N+]1=C(/C=C/c2cc([N+](=O)[O-])ccc2[O-])C(C)(C)c2ccccc21 [5b] ... 44

a. CCCCCCCC[N+]1=C(/C=C/c2cc([N+](=O)[O-])ccc2[O-])C(C)(C)c2ccccc21 [5c]
b. C[N+]1=C(/C=C/c2cc([N+](=O)[O-])ccc2[O-])C(C)(C)c2ccccc21 [5a]
stdin: Field: entry with larger Merocyanine Half-life (options a / b ). Which one? Tell me its label.
stdout: a
(a: 40 s, b: 14 s)
